- TARGET_OF_ASSAY: Metabotropic glutamate receptor 5 (Rattus norvegicus)
- Sequence (P31424 whole entry): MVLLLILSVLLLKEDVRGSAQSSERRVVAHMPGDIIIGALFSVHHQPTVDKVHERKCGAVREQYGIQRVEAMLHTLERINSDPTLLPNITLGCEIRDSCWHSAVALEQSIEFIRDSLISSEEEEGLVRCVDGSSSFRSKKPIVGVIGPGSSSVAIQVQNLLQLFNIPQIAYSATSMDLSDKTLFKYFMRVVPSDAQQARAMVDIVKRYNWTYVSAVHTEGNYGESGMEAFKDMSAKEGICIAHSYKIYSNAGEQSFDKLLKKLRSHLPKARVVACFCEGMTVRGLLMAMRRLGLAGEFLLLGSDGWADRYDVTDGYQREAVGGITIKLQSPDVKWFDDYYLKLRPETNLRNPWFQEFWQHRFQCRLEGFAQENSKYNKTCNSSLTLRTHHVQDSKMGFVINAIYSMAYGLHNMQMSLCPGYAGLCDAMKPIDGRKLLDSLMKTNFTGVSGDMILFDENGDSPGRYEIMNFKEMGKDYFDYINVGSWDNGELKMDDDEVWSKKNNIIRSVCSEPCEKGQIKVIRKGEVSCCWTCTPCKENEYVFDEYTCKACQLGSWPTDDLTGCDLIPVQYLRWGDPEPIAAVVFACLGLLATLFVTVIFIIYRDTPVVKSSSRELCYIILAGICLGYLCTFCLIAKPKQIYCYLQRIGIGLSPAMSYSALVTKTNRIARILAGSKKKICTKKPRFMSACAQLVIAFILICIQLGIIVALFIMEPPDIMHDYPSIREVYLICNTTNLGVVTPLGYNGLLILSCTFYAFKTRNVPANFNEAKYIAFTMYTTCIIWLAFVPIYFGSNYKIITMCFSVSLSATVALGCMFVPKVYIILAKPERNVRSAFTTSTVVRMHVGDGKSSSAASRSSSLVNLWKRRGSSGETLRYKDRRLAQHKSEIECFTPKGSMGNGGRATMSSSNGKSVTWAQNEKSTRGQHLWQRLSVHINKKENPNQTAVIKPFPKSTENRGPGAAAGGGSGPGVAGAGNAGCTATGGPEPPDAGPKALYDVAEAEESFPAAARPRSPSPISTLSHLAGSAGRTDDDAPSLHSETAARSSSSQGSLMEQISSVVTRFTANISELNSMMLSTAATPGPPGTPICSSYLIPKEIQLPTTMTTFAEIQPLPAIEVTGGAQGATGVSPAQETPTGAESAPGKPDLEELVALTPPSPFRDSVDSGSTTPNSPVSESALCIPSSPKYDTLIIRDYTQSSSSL
- PROTOCOL_TEXT: Antagonist activity at rat mGluR5 expressed in HEK293 cells assessed as inhibition of glutamate-induced calcium mobilization by Fluo-4 dye-based fluorescence assay
MEASURE_NAME: pIC50
FYI, pIC50 means -log10 of a concentration in mol per litre.

Using the record for "N#Cc1cnc(Nc2nc3ccccc3o2)nc1-c1ccc(F)cc1" , report its pIC50.
7.04

----------
- TARGET_OF_ASSAY: Metabotropic glutamate receptor 5 (Homo sapiens, UniProt P41594)
- Sequence (P41594 whole entry): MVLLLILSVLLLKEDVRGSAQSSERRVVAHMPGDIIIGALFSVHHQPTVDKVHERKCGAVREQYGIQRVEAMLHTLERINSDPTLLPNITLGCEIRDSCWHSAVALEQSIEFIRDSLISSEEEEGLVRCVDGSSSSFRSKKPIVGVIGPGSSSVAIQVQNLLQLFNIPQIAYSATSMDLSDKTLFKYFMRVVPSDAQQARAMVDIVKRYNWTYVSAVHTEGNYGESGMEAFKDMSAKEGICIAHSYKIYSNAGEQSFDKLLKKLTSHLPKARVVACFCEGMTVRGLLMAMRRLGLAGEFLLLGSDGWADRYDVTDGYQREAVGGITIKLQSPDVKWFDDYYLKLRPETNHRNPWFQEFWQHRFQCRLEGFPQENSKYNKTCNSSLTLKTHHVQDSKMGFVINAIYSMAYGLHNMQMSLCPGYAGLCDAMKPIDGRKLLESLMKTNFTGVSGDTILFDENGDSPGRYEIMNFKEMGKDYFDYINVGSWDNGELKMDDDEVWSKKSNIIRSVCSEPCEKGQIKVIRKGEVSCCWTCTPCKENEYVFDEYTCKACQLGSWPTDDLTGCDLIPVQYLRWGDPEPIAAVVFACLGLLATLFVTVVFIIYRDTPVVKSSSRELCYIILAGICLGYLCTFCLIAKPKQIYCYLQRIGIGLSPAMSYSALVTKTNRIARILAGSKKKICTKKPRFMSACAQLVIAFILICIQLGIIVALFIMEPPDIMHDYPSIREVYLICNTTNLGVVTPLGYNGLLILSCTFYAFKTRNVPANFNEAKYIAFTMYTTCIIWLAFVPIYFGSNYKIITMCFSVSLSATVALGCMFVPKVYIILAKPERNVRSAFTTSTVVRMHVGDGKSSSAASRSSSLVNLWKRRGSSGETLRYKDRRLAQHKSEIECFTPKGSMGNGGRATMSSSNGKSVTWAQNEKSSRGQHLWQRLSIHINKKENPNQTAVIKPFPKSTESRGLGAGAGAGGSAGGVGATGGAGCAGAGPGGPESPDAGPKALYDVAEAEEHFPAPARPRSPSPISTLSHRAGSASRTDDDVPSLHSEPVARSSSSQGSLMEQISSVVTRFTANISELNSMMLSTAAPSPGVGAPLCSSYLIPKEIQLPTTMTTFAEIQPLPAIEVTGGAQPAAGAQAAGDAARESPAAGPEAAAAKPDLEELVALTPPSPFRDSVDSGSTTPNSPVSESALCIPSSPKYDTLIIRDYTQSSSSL
- PROTOCOL_TEXT: Antagonist activity at mGluR5 (unknown origin)
MEASURE_NAME: IC50 (µM)
API: value field is a number in µM; no unit string.

Using the record for N#Cc1nccnc1N1CCN2[C@@H](CC[C@@H]2c2nnn(-c3cccc(Cl)c3)n2)C1 (racemic) , report its IC50.
0.01
